# Test system: PMNL
# assaySummary: Inhibition of LTB4 biosynthesis in A-23187-stimulated bovine PMNL cells
# Assay type: functional, cell-based
# testParameters: Bos taurus
Listed here: items and their measured IC50.
Enter your answer as a number in µM; do not include the unit.

Below, 3 compounds whose answers are already recorded.
# compound, experimentalSystem, measureUnit, IC50
measured = [
    ("CCOC(=O)c1c(C)cc(O)c(C=O)c1O [ETHYL HEMATOMMATE]", "PMNL", "µM", 40),
    ("C=C1C(=O)O[C@@H](CCCCCCCCCCCCC)[C@@H]1C(=O)O [PROTOLICHESTERINIC ACID]", "PMNL", "µM", 9),
    ("CC(=O)C1=C(O)C=C2Oc3c(C(C)=O)c(O)c(C)c(O)c3[C@@]2(C)C1=O [(+)-USNIC ACID]", "PMNL", "µM", 42),
]

Turning now to a further compound:
Please give the measured IC50 for this compound: COC(=O)c1c(C)cc(OC(=O)c2c(C)cc(O)c(C=O)c2O)c(C)c1O [ATRANORIN]
6

* * *

# assaySummary: Prooxidant activity assessed as hydroxyl radical formation at 75 uM measured as malondialdehyde per mmol of deoxyribose by deoxyribose assay
# Type: functional
Listed here: items and their measured Activity.
Enter your answer as a number in µmol; do not include the unit.

# compound, Activity, µmol
measured = [
    ("COC(=O)c1c(C)cc(O)c(C)c1O", 1.43),
    ("CCOC(=O)c1c(C)cc(O)c(C=O)c1O [ETHYL HEMATOMMATE]", 0.3),
    ("COc1cc(C)c(C(=O)Oc2cc(C)c(C(=O)O)c(O)c2C)c(OC)c1C", 0.12),
]

Turning now to a further compound:
Please give the measured Activity for this compound: CC(=O)C1=C(O)C=C2Oc3c(C(C)=O)c(O)c(C)c(O)c3[C@@]2(C)C1=O [(+)-USNIC ACID]
1.47

* * *

# assaySummary: Inhibition of AAPH-induced lipid peroxidation in bovine brain phospholipid liposome
# Type: functional, tissue-based, Bos taurus
propertyLabel: IC50

Below, 3 molecules whose answers are already recorded.
# molecule, testResult
measured = [
    ("COc1cc(C)c(C(=O)Oc2cc(C)c(C(=O)O)c(O)c2C)c(OC)c1C [DIFFRACTAIC ACID]", "> 200 µM"),
    ("C=C1C(=O)O[C@@H](CCCCCCCCCCCCC)[C@@H]1C(=O)O [PROTOLICHESTERINIC ACID]", "> 200 µM"),
    ("CC(Cc1ccc(O)c(O)c1)C(C)Cc1ccc(O)c(O)c1 (centres undefined) [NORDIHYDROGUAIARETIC ACID]", "2 µM"),
]

Turning now to a further molecule:
Please give the measured IC50 for this molecule: COC(=O)c1c(C)cc(O)c(C)c1O [ATRARIC ACID]
> 200 µM

* * *

# assaySummary: Inhibition of AAPH-induced lipid peroxidation in bovine brain phospholipid liposome
# Type: functional, tissue-based, Bos taurus
pIC50: −log10 of the molar value.
propertyLabel: pIC50

# molecule, pIC50
data = [
    ("CC(=O)C1=C(O)C=C2Oc3c(C(C)=O)c(O)c(C)c(O)c3[C@@]2(C)C1=O [(+)-USNIC ACID]", "< 3.70"),
    ("Cc1cc(OC(=O)c2c(C)cc(OC(=O)c3c(C)cc(O)cc3O)cc2O)cc(O)c1C(=O)O", "< 3.70"),
    ("O=C1c2c(O)cccc2Cc2cccc(O)c21", 4.10),
    ("COC(=O)c1c(C)cc(OC(=O)c2c(C)cc(O)c(C=O)c2O)c(C)c1O", "< 3.70"),
]

Turning now to a further molecule:
Please give the measured pIC50 for this molecule: CCOC(=O)c1c(C)cc(O)c(C=O)c1O [ETHYL HEMATOMMATE]
< 3.70
